# METHOD DESCRIPTION: Dissociation constant, pKa of the compound at OH/C-ring
# Type: physicochemical
READOUT LABEL: pKa

O=C(c1cccc(O)c1)c1cccc(-c2ccc(O)c(F)c2)n1 :: 8.8

Req: Please give the measured pKa for this compound: O=C(c1ccc(F)c(O)c1)c1cccc(-c2ccc(O)c(F)c2)n1
Resp: 7.8

* * *

# SUBJECT OF TEST: UniProt P37059
# Sequence (P37059 whole entry): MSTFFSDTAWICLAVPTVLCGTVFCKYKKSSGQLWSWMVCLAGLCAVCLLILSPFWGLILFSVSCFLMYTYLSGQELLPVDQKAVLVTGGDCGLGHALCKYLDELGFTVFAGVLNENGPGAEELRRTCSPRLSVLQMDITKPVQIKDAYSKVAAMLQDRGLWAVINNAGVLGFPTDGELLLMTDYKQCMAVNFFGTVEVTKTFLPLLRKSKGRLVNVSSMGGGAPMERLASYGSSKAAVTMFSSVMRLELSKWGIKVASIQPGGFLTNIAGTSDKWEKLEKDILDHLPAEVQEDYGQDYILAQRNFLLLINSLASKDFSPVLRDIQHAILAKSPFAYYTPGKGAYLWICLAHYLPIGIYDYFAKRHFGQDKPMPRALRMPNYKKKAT
READOUT LABEL: IC50 (nM)
One number for each entry, in nM.

Req: Look up IC50: Cc1cc(-c2ccc(C(=O)c3ccc(F)c(O)c3)cc2)ccc1O
Resp: 40
